- assaySystem: human APJ receptor (Homo sapiens (Human))
- experimentSummary: Intracellular cAMP accumulation assay (APJ hcAMP, HTRF)
- Format: cell-based
- assayContext: HEK293 cells stably expressing human APJ receptor; inhibition of forskolin-mediated cAMP production; read-out: hAPJ cAMP EC50 Potency range
experimentalEndpoint: EC50

CCCCc1nc(O)c(-c2nnc(Cc3nnc(-c4cccc(Cl)c4)o3)o2)c(O)c1-c1c(OC)cccc1OC	10 to 100 nM
CCCCc1nc(O)c(-c2nnc(Cc3noc4ccccc34)o2)c(O)c1-c1c(C)cc(C)cc1C	10 to 100 nM
CCCCc1nc(O)c(-c2nnc(Cc3ccc(Cl)c(Cl)c3)o2)c(O)c1-c1c(OC)cccc1OC	0.01 to 10 nM

Moving on to another compound below.
So what does the record say about EC50 for CCCCNC(=O)Cc1nnc(-c2c(O)nc(CCCC)c(-c3c(OC)cccc3OC)c2O)o1 ? 0.01 to 10 nM

###

Each item that follows carries a reported EC50.
- assaySystem: human APJ receptor (Homo sapiens (Human), UniProt P35414)
- Sequence (P35414 whole entry): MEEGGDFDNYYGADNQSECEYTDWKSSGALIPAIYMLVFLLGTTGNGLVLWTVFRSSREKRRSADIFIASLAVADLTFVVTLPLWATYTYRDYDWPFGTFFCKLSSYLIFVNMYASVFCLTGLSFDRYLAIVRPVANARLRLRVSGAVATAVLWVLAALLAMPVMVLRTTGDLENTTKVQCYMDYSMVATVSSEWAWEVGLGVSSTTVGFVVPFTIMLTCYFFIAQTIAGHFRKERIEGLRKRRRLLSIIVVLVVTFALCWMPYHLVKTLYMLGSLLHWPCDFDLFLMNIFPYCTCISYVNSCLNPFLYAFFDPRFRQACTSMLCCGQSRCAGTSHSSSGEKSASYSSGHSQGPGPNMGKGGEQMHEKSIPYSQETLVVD
- experimentSummary: Intracellular cAMP accumulation assay (APJ hcAMP, HTRF)
- Assay type: cell-based
- assayContext: HEK293 cells stably expressing human APJ receptor; inhibition of forskolin-mediated cAMP production; read-out: hAPJ cAMP EC50 Potency range

Example compounds with recorded EC50:
CCCCc1nc(O)c(-c2nnc(CN(C)C(=O)c3ccccc3Cl)o2)c(O)c1-c1c(OC)cccc1OC	0.01 to 10 nM
CCCCc1nc(O)c(-c2nnc(Cc3cnn(-c4ccccc4)c3)o2)c(O)c1-c1c(OC)cccc1OC	10 to 100 nM

What is its EC50 for human APJ receptor (Homo sapiens (Human), UniProt P35414)? Entry: CCCCc1nc(O)c(-c2nnc(CCc3nc(-c4ccccc4)no3)o2)c(O)c1-c1c(OC)cccc1OC 10 to 100 nM

###

- assaySystem: human APJ receptor (Homo sapiens (Human))
- experimentSummary: Intracellular cAMP accumulation assay (APJ hcAMP, HTRF)
- Type: cell-based
- assayContext: HEK293 cells stably expressing human APJ receptor; inhibition of forskolin-mediated cAMP production; read-out: hAPJ cAMP EC50 Potency range
pEC50: −log10 of the molar value.
Each item that follows carries a reported pEC50.

Example compounds with recorded pEC50:
CCOCc1nc(O)c(-c2nnc(Cc3n[nH]c4ccccc34)o2)c(O)c1-c1c(OC)cccc1OC	8.00 to 11.00
CCCCc1nc(O)c(-c2nnc(CNC(=O)c3ccc(Cl)cc3)o2)c(O)c1-c1c(OC)cccc1OC	8.00 to 11.00
CCCCc1nc(O)c(-c2nnc(C(C)(C)c3ccc(Cl)c(Cl)c3)o2)c(O)c1-c1c(OC)cccc1OC	8.00 to 11.00

What is its pEC50 for human APJ receptor (Homo sapiens (Human))? Entry: CCCCc1nc(O)c(-c2nnc(Cc3cccc(OC)c3)o2)c(O)c1-c1c(OC)cccc1OC 8.00 to 11.00

What is its pEC50 for human APJ receptor (Homo sapiens (Human))? Entry: CCCCc1nc(O)c(-c2nnc(CCc3nccs3)o2)c(O)c1-c1c(OC)cccc1OC 8.00 to 11.00

What is its pEC50 for human APJ receptor (Homo sapiens (Human))? Entry: CCCCc1nc(O)c(-c2nnc(Cc3ccc(F)c(F)c3)o2)c(O)c1-c1cccc(OC)c1 7.00 to 8.00

What is its pEC50 for human APJ receptor (Homo sapiens (Human))? Entry: CCOCc1nc(O)c(-c2nnc(Cc3cnn(C)c3)o2)c(O)c1-c1c(OC)cccc1OC 7.00 to 8.00
